# TARGET_DESC: RNA-directed RNA polymerase (Influenza A virus (strain A/Puerto Rico/8/1934 H1N1), UniProt P03428+P03431+P03433)
# ASSAY_PROCEDURE: Inhibition of RdRP activity in Influenza A virus A/PR/8/34(H1N1) infected in HEK293T cells incubated for 24 hrs by minireplicon based dual luciferase assay
Kindly state EC50 for each of the entries shown.
Hi! Could you send only the number? It should be in µM, unit omitted.

I am curious: what EC50 value has been reported for Cc1cc(-c2ccccc2)n2nc(-c3nc4ccccc4c(=O)o3)nc2n1 ? 21

Let us now turn to NC(=O)c1ncn([C@@H]2O[C@H](CO)[C@@H](O)[C@H]2O)n1 16

###

# ASSAY_PROCEDURE: Cytotoxicity against MDCK cells assessed as reduction in cell viability by MTT assay
# Format: cell-based, Canis lupus familiaris
# ASSAY_SETUP: dog
OBSERVABLE: CC50

I am curious: what CC50 value has been reported for COc1ccc(C(=O)Nc2nc3n(n2)C(c2ccccc2)C=C(C)N3)cc1 (stereo unspecified) ? 240 µM

###

# TARGET_DESC: PA/PB1 (Influenza A virus (A/Puerto Rico/8/1934(H1N1)), UniProt P03431+P03433)
# ASSAY_PROCEDURE: Inhibition of Influenza A virus 6 His-tagged PA (239 to 716 residues) expressed in Escherichia coli BL21 pLysS/GST-tagged PB1 (1 to 25 residues) expressed in Escherichia coli protein-protein interaction using 3.3',5,5' tetramethyl benzidine as substrate by ELISA
Rule for this label: met means IC50 is less than 30 µM; not met means IC50 is at least 30 µM.

Does NC(=O)c1c(NC(=O)c2nc3nccc(-c4ccccc4)n3n2)sc2c1CCCCC2 have IC50 strictly under 30 µM? met

Let us now turn to NC(=O)c1ccccc1NC(=O)c1nc2ncc(-c3ccccc3)cn2n1 not met

Let us now turn to NC(=O)c1ccccc1NC(=O)c1nc2nccc(-c3ccccc3)n2n1 met

Let us now turn to O=C(Nc1nc2nc(-c3ccccc3)ccn2n1)c1ccccc1 not met

Let us now turn to COC(=O)c1ccccc1NC(=O)c1nc2nc(C)cc(-c3ccccc3)n2n1 met

Let us now turn to O=C(Nc1nc2nccc(-c3ccccc3)n2n1)c1ccccc1 not met

Let us now turn to Cc1cc(-c2ccccc2)n2nc(-c3nc4ccccc4c(=O)o3)nc2n1 met

Let us now turn to O=C(Nc1nc2nc(-c3ccccc3)cc(O)n2n1)c1ccccc1 met

Let us now turn to NC(=O)c1c(NC(=O)c2nc3ncc(-c4ccccc4)cn3n2)sc2c1CCCCC2 not met

Let us now turn to Cc1cc(-c2ccccc2)n2nc(C(=O)Nc3ccccc3C(=O)O)nc2n1 not met

###

# ASSAY_PROCEDURE: Cytotoxicity against African green monkey Vero E6 cells assessed as reduction in cell viability incubated for 1 to 2 hrs by MTS assay
# Assay type: cell-based, Vero C1008
# ASSAY_SETUP: chlorocebus sabaeus, time 1-2 hrs
OBSERVABLE: CC50

I am curious: what CC50 value has been reported for Cc1cc(-c2ccccc2)nc2nc(C(=O)Nc3ccccc3F)nn12 ? > 100 µM

###

# TARGET_DESC: PA/PB1 (Influenza A virus (A/Puerto Rico/8/1934(H1N1)), UniProt P03431+P03433)
# ASSAY_PROCEDURE: Inhibition of Influenza A virus 6 His-tagged PA (239 to 716 residues) expressed in Escherichia coli BL21 pLysS/GST-tagged PB1 (1 to 25 residues) expressed in Escherichia coli protein-protein interaction using 3.3',5,5' tetramethyl benzidine as substrate by ELISA
Kindly state pIC50 for each of the entries shown.
As a rule, pIC50 stands for the negative log10 of the concentration, concentration in M.

I am curious: what pIC50 value has been reported for Cc1cc(-c2ccccc2)nc2nc(-c3nc4ccccc4c(=O)o3)nn12 ? 3.91

Let us now turn to Cc1cc(-c2ccccc2)nc2nc(C(=O)Nc3ccccc3C(=O)O)nn12 4.49

Let us now turn to COC(=O)c1ccccc1NC(=O)c1nc2nc(-c3ccccc3)cc(C)n2n1 4.65
